# MEASURED_TARGET: T1, ectodomain of human CD98hc (human, UniProt P08195 105-529)
# T1 chain: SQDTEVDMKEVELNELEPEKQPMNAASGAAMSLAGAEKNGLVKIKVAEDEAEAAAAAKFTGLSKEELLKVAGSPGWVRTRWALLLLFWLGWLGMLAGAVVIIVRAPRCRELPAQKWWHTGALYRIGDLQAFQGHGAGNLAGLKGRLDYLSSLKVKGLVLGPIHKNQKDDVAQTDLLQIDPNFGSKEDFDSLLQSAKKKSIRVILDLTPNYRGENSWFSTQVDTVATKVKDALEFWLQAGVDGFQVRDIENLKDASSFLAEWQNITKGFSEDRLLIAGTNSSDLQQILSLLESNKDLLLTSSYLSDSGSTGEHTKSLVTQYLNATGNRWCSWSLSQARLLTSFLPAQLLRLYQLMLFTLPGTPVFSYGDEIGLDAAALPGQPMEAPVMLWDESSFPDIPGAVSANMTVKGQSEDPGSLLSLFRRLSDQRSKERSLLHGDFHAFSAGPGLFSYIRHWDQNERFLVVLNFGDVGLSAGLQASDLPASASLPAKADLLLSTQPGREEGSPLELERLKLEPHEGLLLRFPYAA
# EXPERIMENTAL_DETAILS: ELISA, expression medium of VNAR-hFc on coated protein
REPORTED_METRIC: Binding [relative units]

INSERT INTO assay_data (binder, observed_value) VALUES
  ('VNAR clone F12 fused N-terminally to human IgG1 Fc (VNAR-hFc) (Fc fusion, Bivalent VNAR-Fc from Expi293 cells; also called F12-hFc; VNAR F12-hFc; not shown: human IgG1 Fc (hinge, CH2 and CH3) as encoded by vector pFUSE-hIgG1e3-Fc2) ARVDQTPQTITKEEGESLTINCVLRVHGRALASTSWYRKKSGSTREETISKGGRYVETVNSGSKSFSLRINDLTVEDSGTYRCNVYGLSFGDIEGVKKIDVYGDGTAVTVNA', '3.99 relative units');

Below: the item to evaluate.
Exercise: If you can, please state the reported Binding [relative units] value of VNAR clone E12 fused N-terminally to human IgG1 Fc (VNAR-hFc) (Fc fusion, Bivalent VNAR-Fc from Expi293 cells; not shown: human IgG1 Fc (hinge, CH2 and CH3) as encoded by vector pFUSE-hIgG1e3-Fc2) ARVDQTPQTITKEEGESLTINCVLRTQDPALASTSWYRKKSGSTREETISKGGRYVETVNSGSKSFSLRINDLTVEDSGTYRCNVYFLLAPTKTKLQGIDVYGDGTAVTVNA .
Key: 2.19 relative units
